- ASSAY DETAILS: amyloid nucleation score (Sup35N fusion, yeast selection) (log enrichment); library NNK1; higher = more nucleation; inactive = no reads after selection;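 further: zero at mode of non-aggregating sequences after 7 days selection at 30°C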
MEASURE NAME: amyloid nucleation score

Worked examples follow.
| SUBSTANCE | amyloid nucleation score |
| --- | --- |
| YMGMLA | 2.34 |
| FHFWEMFTQEAAPIWRWF | -0.139 |
| RISYTDCMVEQLHPNQLWQN | -0.069 |
| WPTIPAVQCRRVVCSRDTWA | -0.185 |
| CTDPFQDLTRELLLLVCIGL | -0.201 |
| FNYYITFHCTCELECRGYCT | 7.84 |
| SFVVTAEPSRAMNYSCFWKR | inactive |
| VERFDLHLSD | 1.06 |
| AYICYLILFQSQRVW | -0.827 |
| TYRKYLRVRTLDERHGSVYE | 0.147 |

-- ask Return amyloid nucleation score (reported value) for this substance: IRKHLDPGPSYRSSYLRGW
-- reply inactive

-- ask Give reported amyloid nucleation score value for GRNRRDVMSRSYSVVG
-- reply -0.72

-- ask Give the reported amyloid nucleation score for this substance. YQLTQLGLLS
-- reply 0.025

-- ask Quote amyloid nucleation score reported for SLIGYVIKW please.
-- reply -0.095

-- ask Please supply the value of reported amyloid nucleation score for the item QSWHEWDM
-- reply inactive

-- ask Please report amyloid nucleation score for the following substance: RQQMTRTCVNDGS
-- reply -1.02

-- ask Consider the substance LLFTNEKHNSLVNQGTPEWC and give its recorded amyloid nucleation score.
-- reply 0.13

-- ask Look up and state reported amyloid nucleation score for HNFKCHLKSCKVSNFN
-- reply -1.02

-- ask Give reported amyloid nucleation score value for YTFLYSPTHCPRENHPNSVL
-- reply 0.211

-- ask Identify measured amyloid nucleation score corresponding to SSVCGKL
-- reply -0.211

-- ask Note amyloid nucleation score for the substance shown: FSLFTWSWFR
-- reply 0.625

-- ask Tell me measured amyloid nucleation score for YLKINTTYGCDI please.
-- reply 1.93

-- ask Given YAKHFPVLRTCLLNSVWGQG , respond with its amyloid nucleation score.
-- reply 1.33

-- ask Please report the measured amyloid nucleation score for YSITIRITEYNGVVSTGLHL
-- reply 0.325

-- ask Consider the substance RECFRQANFCFMGLSTLGKS . State its measured amyloid nucleation score.
-- reply -0.88

-- ask Read off the recorded amyloid nucleation score for SFRACFGPWLFIALIPKNTV
-- reply -1.1

-- ask Fill in amyloid nucleation score for record LECYEVYRYRKCLCCIVCVC
-- reply 0.633

-- ask Supply amyloid nucleation score value. Item: LRYFDLVATNHDNMIYDQYL
-- reply -0.177

-- ask Specify amyloid nucleation score for SLNGMTYVSMIVRSD and stop.
-- reply 1.41

-- ask // fetch amyloid nucleation score given entry RGYSSTPRFVNIACYMVQSL
-- reply 2.45

-- ask Given RSMYSQCVLIMGAPTRISGL , respond with its amyloid nucleation score.
-- reply 6.29

-- ask Answer with the recorded amyloid nucleation score of RLNNLWKFDEVLLGSSNRTR only.
-- reply -1.24

* * *

- ASSAY DETAILS: amyloid nucleation score (Sup35N fusion, yeast selection) (log enrichment); library NNK3; higher = more nucleation; inactive = no reads after selection
MEASURE NAME: amyloid nucleation score

# example entries with known answers
| SUBSTANCE | EXPERIMENTAL VALUE |
| --- | --- |
| AFLFTLL | inactive |
| ICYTLVTN | inactive |
| YIPVSTFM | -0.135 |
| FDFARWKDMKRESFLFLDVR | inactive |
| LRASTPYHPMLFELGKLALI | inactive |
| WGLMIWSWPYMFCTLLPASR | inactive |

-- ask Supply reported amyloid nucleation score belonging to this substance: FPRSSRIFSCCSRIRLCAFV
-- reply inactive

-- ask Quick one: give measured amyloid nucleation score for YIINARPYVVVTDGLKDETA
-- reply inactive

-- ask Output amyloid nucleation score of IGRNSSKIFLFFCSCMRMFS
-- reply 2.95

-- ask State its amyloid nucleation score: NYIDGFFFVHWAGTLMHKDC
-- reply inactive

* * *

- ASSAY DETAILS: amyloid nucleation score (Sup35N fusion, yeast selection) (log enrichment); library NNK1; higher = more nucleation; inactive = no reads after selection
Label rule, in plain words: amyloid nucleation score of -0.2 and up is condition met, under -0.2 is condition not met.

-- ask Record CLLSRLYMVSLFWS ; criterion: amyloid nucleation score no lower than -0.2. Met?
-- reply condition met

-- ask Check the entry CLSRLLVLKYLSTWSKKWVW : does amyloid nucleation score equal or exceed -0.2?
-- reply condition met

-- ask Is amyloid nucleation score for FKEMIAWPWLESSSGEFTIV at or above -0.2?
-- reply condition met

-- ask Threshold query (amyloid nucleation score >= -0.2) on TLLMRSEGYLFYYAPSLSLV
-- reply condition not met

-- ask Identify whether the reported amyloid nucleation score of the following substance is -0.2 or greater: EYVHLNQVNDAGGVDSGTLS
-- reply condition met

-- ask Hi, just wondering whether ESSYLMNKCSSAIQDWDWGR shows amyloid nucleation score of -0.2 or higher.
-- reply condition met

-- ask // inclusive: amyloid nucleation score at least -0.2? input: NYYDSRFGLHIVLELWVARL
-- reply condition met

-- ask Has EPLISCILCKLEGWIPYHI a recorded amyloid nucleation score greater than or equal to -0.2?
-- reply condition not met

-- ask Answer whether amyloid nucleation score of SLVDGSHNNFRGWVPIVVQG is greater than or equal to -0.2.
-- reply condition met

-- ask Would you say NEHAENDVTFQGNEDICVVM shows amyloid nucleation score at minimum -0.2?
-- reply condition not met

-- ask Hello, I need to know if LLIVYYNVDITQCRWFTELC has measured amyloid nucleation score not below -0.2. Thanks!
-- reply condition met

-- ask Is reported amyloid nucleation score greater than or equal to -0.2 here: FWKTLQIFRTMVVN
-- reply condition met

-- ask # bool: amyloid nucleation score of LMAYNLGRPFAPFNCNVMGR >= -0.2
-- reply condition not met

-- ask Reported amyloid nucleation score at or above -0.2? YIWRNKKSAIRCDSKTVRRN
-- reply condition not met

-- ask Quick check: does MRTPGCVMF have amyloid nucleation score greater than or equal to -0.2?
-- reply condition not met

-- ask Hello, I need to know if SRYQEYRFQMCMMECMRRLA has measured amyloid nucleation score not below -0.2. Thanks!
-- reply condition met

-- ask // inclusive: amyloid nucleation score at least -0.2? input: LRCRQKKYAAYRGTAVYWLL
-- reply condition not met

-- ask Quick check, amyloid nucleation score >= -0.2? SIVGLNQ
-- reply condition met

-- ask Quick check: does VVGSVLRGSYTCLG have amyloid nucleation score greater than or equal to -0.2?
-- reply condition not met

-- ask Could you tell me if the measured amyloid nucleation score of FMASTRRFPLSLMRRAHVYL reaches -0.2 or more?
-- reply condition met

-- ask Assess whether reported amyloid nucleation score for REVSVVNLYRCFDGIRSKLT sits at -0.2 or higher.
-- reply condition met

-- ask Check this substance for amyloid nucleation score at or above -0.2: FATRTLVYVYFRWCHDDLSH
-- reply condition met

-- ask Could you verify whether the entry LVITVYLYVRRDFCFAFGWL shows amyloid nucleation score of no less than -0.2?
-- reply condition not met

-- ask Is reported amyloid nucleation score greater than or equal to -0.2 here: FRLVNIIR
-- reply condition met

-- ask Check this substance for amyloid nucleation score at or above -0.2: LLVRNMSNVVPLMFSIPSNV
-- reply condition met

-- ask Assess whether reported amyloid nucleation score for SHTADFRVLLRLIQYERGLR sits at -0.2 or higher.
-- reply condition met

-- ask Check the entry QRRYRDTAGLNRNIRNICSK : does amyloid nucleation score equal or exceed -0.2?
-- reply condition not met

* * *

- ASSAY DETAILS: amyloid nucleation score (Sup35N fusion, yeast selection) (log enrichment); library NNK3; higher = more nucleation; inactive = no reads after selection
MEASURE NAME: amyloid nucleation score

Reference set, count: 5
| SUBSTANCE | amyloid nucleation score |
| --- | --- |
| NILGLKCPSYYPQHVSCGYY | inactive |
| GMFCNGINTNYVPVYYYRSV | 1.27 |
| YRYYCWNCCELGIDGTMWVA | -0.526 |
| GLFCPVYS | inactive |
| SPDDVDYFFLVRNDRMCAYV | inactive |

-- ask Output amyloid nucleation score of NCINVYGNTNLLRGPVGTSG
-- reply inactive

-- ask For the substance ISGKCRIVAVESSCECSLSS , give its measured amyloid nucleation score value.
-- reply inactive

-- ask State its amyloid nucleation score for this substance: LLNYFRLMCYRSFL
-- reply inactive
